The values you see were collected from patent US7033991.

target: T1, Furin (recombinant, truncated) (mouse), P23188
T1 chain: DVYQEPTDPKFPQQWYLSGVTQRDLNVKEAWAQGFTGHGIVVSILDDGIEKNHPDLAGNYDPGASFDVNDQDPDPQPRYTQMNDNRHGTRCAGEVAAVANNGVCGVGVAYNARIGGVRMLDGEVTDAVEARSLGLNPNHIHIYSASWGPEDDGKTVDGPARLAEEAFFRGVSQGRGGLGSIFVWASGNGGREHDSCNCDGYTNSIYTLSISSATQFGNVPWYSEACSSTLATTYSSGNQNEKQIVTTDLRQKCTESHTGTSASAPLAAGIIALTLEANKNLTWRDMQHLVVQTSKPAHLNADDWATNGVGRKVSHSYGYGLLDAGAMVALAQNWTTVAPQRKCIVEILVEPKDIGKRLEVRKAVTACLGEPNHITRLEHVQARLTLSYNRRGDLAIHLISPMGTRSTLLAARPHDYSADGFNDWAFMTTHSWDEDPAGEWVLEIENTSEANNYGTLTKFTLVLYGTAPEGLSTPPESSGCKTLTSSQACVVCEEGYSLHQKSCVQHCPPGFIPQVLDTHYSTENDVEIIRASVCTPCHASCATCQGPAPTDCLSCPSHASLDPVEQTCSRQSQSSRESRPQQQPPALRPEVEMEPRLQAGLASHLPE
assay setup: modification not given
pKi: −log10 of the molar value.

# binder, pKi
data = [
    ("Ac-RHKRRR-NH2 [Ac-RHKRRR-NH2]", 5.47),
]
